src = paper PMC9911399

# binding signal per entry
- targetOfAssay: T1, RBFOX1 RRM (Homo sapiens, UniProt Q9NWB1 109-208)
- T1 sequence: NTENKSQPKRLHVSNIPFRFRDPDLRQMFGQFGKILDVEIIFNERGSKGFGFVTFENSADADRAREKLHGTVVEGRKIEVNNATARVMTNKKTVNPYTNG
- methodNotes: EMSA; HiTS-Eq, 1 nM pool, 10 min; buffer printed only for the single-RNA assays: 10 mM Tris pH 7.5, 150 mM NaCl, 3.4 mM EDTA, 0.001% NP-40, 30 C
- reportedConditions: tags: His6 N-terminal (pET28a); label: 5' 32P
Over roughly 16,000 sequences, “ka relative to ugcaugu” has its median near 0.0091; the highest 2% begin near 0.032. The entries come from a sample that favours the highest values as a whole.
readoutLabel: binding signal

1) ACCACGG (DNA:RNA) RNA: GGGAGACCGGAAUUCAGAUUGUCCACCACGGUUAAAUCCCGUCGUAGCCACCA DNA 1: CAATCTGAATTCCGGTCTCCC DNA 2: TGGTGGCTACGACGGGATT    0.0054 KA relative to UGCAUGU
2) UUGCUAC (DNA:RNA) RNA: GGGAGACCGGAAUUCAGAUUGUCCUUGCUACUUAAAUCCCGUCGUAGCCACCA DNA 1: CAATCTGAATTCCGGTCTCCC DNA 2: TGGTGGCTACGACGGGATT    0.015 KA relative to UGCAUGU
3) UGCACGA (DNA:RNA) RNA: GGGAGACCGGAAUUCAGAUUGUCCUGCACGAUUAAAUCCCGUCGUAGCCACCA DNA 1: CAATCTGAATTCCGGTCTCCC DNA 2: TGGTGGCTACGACGGGATT    0.0767 KA relative to UGCAUGU
4) AUACGAU (DNA:RNA) RNA: GGGAGACCGGAAUUCAGAUUGUCCAUACGAUUUAAAUCCCGUCGUAGCCACCA DNA 1: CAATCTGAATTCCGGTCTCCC DNA 2: TGGTGGCTACGACGGGATT    0.00313 KA relative to UGCAUGU
5) UGCCCGG (DNA:RNA) RNA: GGGAGACCGGAAUUCAGAUUGUCCUGCCCGGUUAAAUCCCGUCGUAGCCACCA DNA 1: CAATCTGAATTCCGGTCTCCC DNA 2: TGGTGGCTACGACGGGATT    0.0184 KA relative to UGCAUGU
6) CAUCAAA (DNA:RNA) RNA: GGGAGACCGGAAUUCAGAUUGUCCCAUCAAAUUAAAUCCCGUCGUAGCCACCA DNA 1: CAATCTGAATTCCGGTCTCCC DNA 2: TGGTGGCTACGACGGGATT    0.00054 KA relative to UGCAUGU
7) CGCAUAC (DNA:RNA) RNA: GGGAGACCGGAAUUCAGAUUGUCCCGCAUACUUAAAUCCCGUCGUAGCCACCA DNA 1: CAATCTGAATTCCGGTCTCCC DNA 2: TGGTGGCTACGACGGGATT    0.0068 KA relative to UGCAUGU
8) GAUCGUC (DNA:RNA) RNA: GGGAGACCGGAAUUCAGAUUGUCCGAUCGUCUUAAAUCCCGUCGUAGCCACCA DNA 1: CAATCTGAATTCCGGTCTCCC DNA 2: TGGTGGCTACGACGGGATT    0.0199 KA relative to UGCAUGU
9) UUUUUGU (DNA:RNA) RNA: GGGAGACCGGAAUUCAGAUUGUCCUUUUUGUUUAAAUCCCGUCGUAGCCACCA DNA 1: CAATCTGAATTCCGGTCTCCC DNA 2: TGGTGGCTACGACGGGATT    0.0281 KA relative to UGCAUGU
10) UCCGUCU (DNA:RNA) RNA: GGGAGACCGGAAUUCAGAUUGUCCUCCGUCUUUAAAUCCCGUCGUAGCCACCA DNA 1: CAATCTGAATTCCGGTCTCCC DNA 2: TGGTGGCTACGACGGGATT    0.0154 KA relative to UGCAUGU
11) UGUCUGC (DNA:RNA) RNA: GGGAGACCGGAAUUCAGAUUGUCCUGUCUGCUUAAAUCCCGUCGUAGCCACCA DNA 1: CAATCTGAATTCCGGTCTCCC DNA 2: TGGTGGCTACGACGGGATT    0.0316 KA relative to UGCAUGU
12) CUAUCUG (DNA:RNA) RNA: GGGAGACCGGAAUUCAGAUUGUCCCUAUCUGUUAAAUCCCGUCGUAGCCACCA DNA 1: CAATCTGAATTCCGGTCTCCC DNA 2: TGGTGGCTACGACGGGATT    0.00983 KA relative to UGCAUGU
13) ACCUGUG (DNA:RNA) RNA: GGGAGACCGGAAUUCAGAUUGUCCACCUGUGUUAAAUCCCGUCGUAGCCACCA DNA 1: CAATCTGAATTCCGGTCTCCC DNA 2: TGGTGGCTACGACGGGATT    0.00788 KA relative to UGCAUGU
14) UGCACGG (DNA:RNA) RNA: GGGAGACCGGAAUUCAGAUUGUCCUGCACGGUUAAAUCCCGUCGUAGCCACCA DNA 1: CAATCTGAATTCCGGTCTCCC DNA 2: TGGTGGCTACGACGGGATT    0.077 KA relative to UGCAUGU
15) GUGGCCC (DNA:RNA) RNA: GGGAGACCGGAAUUCAGAUUGUCCGUGGCCCUUAAAUCCCGUCGUAGCCACCA DNA 1: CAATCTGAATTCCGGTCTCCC DNA 2: TGGTGGCTACGACGGGATT    0.0179 KA relative to UGCAUGU
16) UAGUAGG (DNA:RNA) RNA: GGGAGACCGGAAUUCAGAUUGUCCUAGUAGGUUAAAUCCCGUCGUAGCCACCA DNA 1: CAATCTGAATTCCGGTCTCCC DNA 2: TGGTGGCTACGACGGGATT    0.00933 KA relative to UGCAUGU
17) GCAGUUG (DNA:RNA) RNA: GGGAGACCGGAAUUCAGAUUGUCCGCAGUUGUUAAAUCCCGUCGUAGCCACCA DNA 1: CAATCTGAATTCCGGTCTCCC DNA 2: TGGTGGCTACGACGGGATT    0.0127 KA relative to UGCAUGU
